src = ChEMBL document CHEMBL1133617

Biological target: Thymidylate synthase (Lactobacillus casei, UniProt P00469)
Sequence (P00469 whole entry): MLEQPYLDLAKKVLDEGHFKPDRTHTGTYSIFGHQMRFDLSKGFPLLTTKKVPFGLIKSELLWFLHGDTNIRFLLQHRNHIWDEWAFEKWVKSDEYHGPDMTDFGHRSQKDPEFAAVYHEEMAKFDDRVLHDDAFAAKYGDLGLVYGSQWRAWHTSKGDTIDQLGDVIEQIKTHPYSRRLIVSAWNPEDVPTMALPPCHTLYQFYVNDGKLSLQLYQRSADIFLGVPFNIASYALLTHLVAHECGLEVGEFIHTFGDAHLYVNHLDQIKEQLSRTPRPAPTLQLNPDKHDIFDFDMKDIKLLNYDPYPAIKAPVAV
pIC50: −log10 of the molar value.
pIC50 listing for selected compounds.

Example compounds with recorded pIC50:
COMPOUND	pIC50
CN(Cc1coc2nc(N)nc(N)c12)c1ccc(C(=O)N[C@@H](CCC(=O)O)C(=O)O)cc1 [FURO[2,3D]PYRIMIDINE ANTIFOLATE]	< 3.70
C/C(=C/c1coc2nc(N)nc(N)c12)c1ccc(C(=O)N[C@@H](CCC(=O)O)C(=O)O)cc1.C/C(=C\c1coc2nc(N)nc(N)c12)c1ccc(C(=O)N[C@@H](CCC(=O)O)C(=O)O)cc1 (mixture of isomers)	< 3.44
CC(Cc1coc2nc(N)nc(N)c12)c1ccc(C(=O)N[C@@H](CCC(=O)O)C(=O)O)cc1 (some centres undefined)	< 3.44

# evaluate next
Qu. I would be grateful if you could share the reported pIC50 for `C/C(=C\c1coc2nc(N)nc(N)c12)c1ccc(C(=O)N[C@@H](CCC(=O)O)C(=O)O)cc1` .
Ans. < 3.44
